# TEST TARGET: Anti-CD28 Fab (SEQ ID NOs: 696, 697)
# Sequence (VH, as listed by the source, chain 1 of 2): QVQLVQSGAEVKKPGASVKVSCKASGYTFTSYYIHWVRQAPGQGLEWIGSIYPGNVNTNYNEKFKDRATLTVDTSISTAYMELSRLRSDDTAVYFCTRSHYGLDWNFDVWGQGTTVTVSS
# Sequence (VL, as listed by the source, chain 2 of 2): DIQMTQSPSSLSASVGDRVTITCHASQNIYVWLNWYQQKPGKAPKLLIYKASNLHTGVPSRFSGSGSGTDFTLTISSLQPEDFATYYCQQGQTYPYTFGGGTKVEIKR
# PROTOCOL DETAILS: phage binding ELISA; Fab-coated wells pre-incubated with CD28 antigen as competitor, anti-M13 HRP detection;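 note: crude clonal phage supernatants added without washing after the CD28 pre-incubation, with wells given blocking buffer only (no CD28) as the reference, bound phage read after washing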
Measured Anti-CD28 Fab signal in the presence of CD28 values are reported for all entries that follow.
Give the value as a plain number.

Would you mind telling me what Anti-CD28 Fab signal in the presence of CD28 value was observed for SCAAGATYSWPMCL [Phage-1421] ?
0.09

Would you mind telling me what Anti-CD28 Fab signal in the presence of CD28 value was observed for WCAAVFSYTWSPCL [Phage-1428] ?
0.07

Would you mind telling me what Anti-CD28 Fab signal in the presence of CD28 value was observed for TCSAGATYEWPWCM [Phage-1425] ?
0.07

This collection of values is drawn from patent US20260242478A1.
